Experiment: chemical genetic growth profiling, strain panel (AID 1159580);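 further: tested at 20 µM; growth read once vehicle control cultures reached saturation at 30 °C; 1 = growth at the plate median or of vehicle wells; lower values mean less growth of the strain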
Conditions: S. cerevisiae deletion strains, growth OD, locus YPL204W, strain HRR25, active compounds read low
In all, about 5,500 compounds went through this assay and about 2,000 (36%) were called active. Not shown: some 18% with an inconclusive outcome. The list shows a part of the results.
RECORDED METRIC: normalized growth

- SUBSTANCE SMILES: "CCCCCCCCCCCCSc1ncn[nH]1"
  RECORDED METRIC: "normalized growth"
  RESULT: "0.556 (active)"
- SUBSTANCE SMILES: "CC(C)(C)NC(=S)N/N=C\\c1cc(Br)c(O)c(Br)c1"
  RECORDED METRIC: "normalized growth"
  RESULT: "0.904 (inactive)"
- SUBSTANCE SMILES: "CN1/C(=C/C=C/c2ccc3ccccc3[n+]2C)C=Cc2ccccc21"
  RECORDED METRIC: "normalized growth"
  RESULT: "0.177 (active)"
- SUBSTANCE SMILES: "O=C1OC(c2ccccc2)=C/C1=C/c1ccccc1"
  RECORDED METRIC: "normalized growth"
  RESULT: "0.839 (inactive)"
- SUBSTANCE SMILES: "Cc1cc(Br)c(O)c(/C=N\\NC(=S)NC(C)(C)C)c1"
  RECORDED METRIC: "normalized growth"
  RESULT: "0.884 (inactive)"
- SUBSTANCE SMILES: "O=C(O/N=C1/CCCc2[nH]c3ccccc3c21)c1ccc(Cl)cc1Cl"
  RECORDED METRIC: "normalized growth"
  RESULT: "0.912 (inactive)"
- SUBSTANCE SMILES: "O=c1[nH][nH]c(=O)n1CCCc1cc2cccc3ccc4cccc1c4c32"
  RECORDED METRIC: "normalized growth"
  RESULT: "0.941 (inactive)"
- SUBSTANCE SMILES: "FC(F)(F)Sc1ccc(OCc2n[nH]c(=S)n2-c2ccccc2)cc1"
  RECORDED METRIC: "normalized growth"
  RESULT: "0.893 (inactive)"
- SUBSTANCE SMILES: "N/C(=N/OC(=O)c1cnn(-c2ccc([N+](=O)[O-])cc2)c1C(F)(F)F)c1ccc(Cl)cc1"
  RECORDED METRIC: "normalized growth"
  RESULT: "1.01 (inactive)"
- SUBSTANCE SMILES: "O=S(=O)(c1cc(Cl)ccc1Cl)N1CCc2ccccc2C1"
  RECORDED METRIC: "normalized growth"
  RESULT: "1.02 (inactive)"
- SUBSTANCE SMILES: "N#Cc1nccnc1N1CCN(C(=O)Nc2cc(Cl)cc(Cl)c2)CC1"
  RECORDED METRIC: "normalized growth"
  RESULT: "0.915 (inactive)"
- SUBSTANCE SMILES: "O=C(NNc1cc(C(F)(F)F)cc(C(F)(F)F)c1)c1cnc2n(c1=O)CCS2"
  RECORDED METRIC: "normalized growth"
  RESULT: "0.982 (inactive)"
- SUBSTANCE SMILES: "COC(=O)/C=C1/OC(c2ccc(OC)cc2)=CC1=O"
  RECORDED METRIC: "normalized growth"
  RESULT: "0.282 (active)"
- SUBSTANCE SMILES: "CC1(C)C=Cc2cc(/C(N)=N\\OC(=O)Nc3cccc(C(F)(F)F)c3)ccc2O1"
  RECORDED METRIC: "normalized growth"
  RESULT: "0.903 (inactive)"
- SUBSTANCE SMILES: "O=C1Nc2ccccc2/C1=C\\c1cccc2ccccc12"
  RECORDED METRIC: "normalized growth"
  RESULT: "0.699 (inactive)"
- SUBSTANCE SMILES: "C/C(=N/NC(N)=S)c1csc(-c2ccccc2)n1"
  RECORDED METRIC: "normalized growth"
  RESULT: "0.774 (inactive)"
- SUBSTANCE SMILES: "Cc1ccc(Sc2ncccc2NS(=O)(=O)c2ccc(Cl)cc2)cc1"
  RECORDED METRIC: "normalized growth"
  RESULT: "0.884 (inactive)"
- SUBSTANCE SMILES: "N#Cc1ccc2[nH]cc(CCN(Cc3ccccc3)Cc3ccccc3)c2c1"
  RECORDED METRIC: "normalized growth"
  RESULT: "0.97 (inactive)"
- SUBSTANCE SMILES: "O=C1/C(=C/c2c[nH]c3ccccc23)CSc2ccccc21"
  RECORDED METRIC: "normalized growth"
  RESULT: "0.928 (inactive)"
- SUBSTANCE SMILES: "FC(F)(F)Oc1ccc(OCc2n[nH]c(=S)n2-c2ccc(Cl)cc2)cc1"
  RECORDED METRIC: "normalized growth"
  RESULT: "0.975 (inactive)"
